Source: ChEMBL document CHEMBL1127343

test system: Escherichia coli; test: In vitro antibacterial activity was measured on gram negative bacteria Escherichia coli PRP-1 tet-a(efflux resistance) cell lines; assay type: functional
value type: MIC (µg/mL)

# molecule, value type, unit abbrev, relation sign, observed result
data = [
    ("C[C@H]1c2ccc(NC(=O)CN)c(O)c2C(=O)C2=C(O)[C@]3(O)C(O)=C(C(N)=O)C(=O)[C@@H](N(C)C)C3[C@@H](O)C21 (stereo partly drawn)", "MIC", "µg/mL", ">", 32),
    ("C[C@H]1c2ccc(NC(=O)[C@H](N)Cc3ccccc3)c(O)c2C(=O)C2=C(O)[C@]3(O)C(O)=C(C(N)=O)C(=O)[C@@H](N(C)C)C3[C@@H](O)C21 (stereo partly drawn)", "MIC", "µg/mL", "=", 16),
    ("C[C@H]1c2ccc(NC(=O)[C@@H](N)CC3CCCCC3)c(O)c2C(=O)C2=C(O)[C@]3(O)C(O)=C(C(N)=O)C(=O)[C@@H](N(C)C)C3[C@@H](O)C21 (stereo partly drawn)", "MIC", "µg/mL", "=", 8),
]

====

tested on: Staphylococcus aureus; assay: In vitro antibacterial activity was measured on gram positive bacteria Staphylococcus aureus smith cell lines; assay type: functional
value type: MIC (µg/mL)

# compound, relation sign, observed result
rows = [
    ("C[C@H]1c2ccc(NC(=O)CN3CCCC3)c(O)c2C(=O)C2=C(O)[C@]3(O)C(O)=C(C(N)=O)C(=O)[C@@H](N(C)C)C3[C@@H](O)C21 (stereo partly specified)", "=", 0.5),
    ("CC(C)C[C@@H](N)C(=O)Nc1ccc2c(c1O)C(=O)C1=C(O)[C@]3(O)C(O)=C(C(N)=O)C(=O)[C@@H](N(C)C)C3[C@@H](O)C1[C@H]2C (stereo partly specified)", "=", 2),
    ("C[C@H]1c2ccc(NC(=O)[C@@H](N)CCCCN)c(O)c2C(=O)C2=C(O)[C@]3(O)C(O)=C(C(N)=O)C(=O)[C@@H](N(C)C)C3[C@@H](O)C21 (stereo partly specified)", ">", 32),
    ("CC(C)C[C@H](N)C(=O)Nc1ccc2c(c1O)C(=O)C1=C(O)[C@]3(O)C(O)=C(C(N)=O)C(=O)[C@@H](N(C)C)C3CC1C2 (stereo partly specified)", "=", 2),
    ("C[C@H]1c2ccc(NC(=O)[C@@H](N)CC3CCCCC3)c(O)c2C(=O)C2=C(O)[C@]3(O)C(O)=C(C(N)=O)C(=O)[C@@H](N(C)C)C3[C@@H](O)C21 (stereo partly specified)", "=", 1),
    ("C[C@H]1c2ccc(NC(=O)[C@@H](N)Cc3ccc(O)cc3)c(O)c2C(=O)C2=C(O)[C@]3(O)C(O)=C(C(N)=O)C(=O)[C@@H](N(C)C)C3[C@@H](O)C21 (stereo partly specified)", "=", 1),
]

====

Parameter: MIC. Scope: all listed entries.
system: Staphylococcus aureus; test: In vitro antibacterial activity was measured on gram positive bacteria Staphylococcus aureus UBMS 88-7 tet-k(efflux resistance) cell lines; format: functional

# compound, unit abbrev, relation sign, MIC
data = [
    ("C[C@H](N)C(=O)Nc1ccc2c(c1O)C(=O)C1=C(O)[C@]3(O)C(O)=C(C(N)=O)C(=O)[C@@H](N(C)C)C3[C@@H](O)C1[C@H]2C (some centres not stated)", "µg/mL", ">", 32),
    ("CC(C)C[C@@H](N)C(=O)Nc1ccc2c(c1O)C(=O)C1=C(O)[C@]3(O)C(O)=C(C(N)=O)C(=O)[C@@H](N(C)C)C3[C@@H](O)C1[C@H]2C (some centres not stated)", "µg/mL", "=", 16),
    ("C[C@H]1c2ccc(NC(=O)[C@H](N)Cc3ccccc3)c(O)c2C(=O)C2=C(O)[C@]3(O)C(O)=C(C(N)=O)C(=O)[C@@H](N(C)C)C3[C@@H](O)C21 (some centres not stated)", "µg/mL", "=", 16),
    ("C[C@H]1c2ccc(NC(=O)CNC(C)(C)C)c(O)c2C(=O)C2=C(O)[C@]3(O)C(O)=C(C(N)=O)C(=O)[C@@H](N(C)C)C3[C@@H](O)C21 (some centres not stated)", "µg/mL", "=", 2),
    ("C[C@H]1c2ccc(NC(=O)[C@@H](N)CCC(N)=O)c(O)c2C(=O)C2=C(O)[C@]3(O)C(O)=C(C(N)=O)C(=O)[C@@H](N(C)C)C3[C@@H](O)C21 (some centres not stated)", "µg/mL", "=", 32),
    ("CC(C)C[C@H](N)C(=O)Nc1ccc2c(c1O)C(=O)C1=C(O)[C@]3(O)C(O)=C(C(N)=O)C(=O)[C@@H](N(C)C)C3[C@@H](O)C1[C@H]2C (some centres not stated)", "µg/mL", "=", 2),
    ("C[C@H]1c2ccc(NC(=O)[C@@H](N)Cc3ccc(O)cc3)c(O)c2C(=O)C2=C(O)[C@]3(O)C(O)=C(C(N)=O)C(=O)[C@@H](N(C)C)C3[C@@H](O)C21 (some centres not stated)", "µg/mL", "=", 32),
    ("CCCCNCC(=O)Nc1ccc2c(c1O)C(=O)C1=C(O)[C@]3(O)C(O)=C(C(N)=O)C(=O)[C@@H](N(C)C)C3[C@@H](O)C1[C@H]2C (some centres not stated)", "µg/mL", "=", 8),
    ("CN(C)[C@@H]1C(O)=C(C(N)=O)C(=O)[C@@]2(O)C(O)=C3C(=O)c4c(O)cccc4C[C@H]3C[C@@H]12", "µg/mL", "=", 4),
    ("COC(=O)Nc1ccc2c(c1O)C(=O)C1=C(O)[C@]3(O)C(O)=C(C(N)=O)C(=O)[C@@H](N(C)C)C3[C@@H](O)C1[C@H]2C (some centres not stated)", "µg/mL", "=", 4),
    ("CC[C@H](C)[C@H](N)C(=O)Nc1ccc2c(c1O)C(=O)C1=C(O)[C@]3(O)C(O)=C(C(N)=O)C(=O)[C@@H](N(C)C)C3[C@@H](O)C1[C@H]2C (some centres not stated)", "µg/mL", "=", 2),
    ("CC(C)C[C@H](NC(=O)[C@@H](N)CC(C)C)C(=O)Nc1ccc2c(c1O)C(=O)C1=C(O)[C@]3(O)C(O)=C(C(N)=O)C(=O)[C@@H](N(C)C)C3[C@@H](O)C1[C@H]2C (some centres not stated)", "µg/mL", "=", 32),
]
